B1: CD207 (parent)
chain: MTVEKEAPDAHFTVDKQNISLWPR

- Variants of: B1
- experiment-summary: protein stability index of a GFP-peptide fusion (GPS, HEK-293T) (PSI 1-6); higher = more stable;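 further: lentivirally expressed fusions sorted by FACS into six bins by GFP to DsRed ratio, PSI derived from sequencing read proportions per bin multiplied by bin number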
- test-context: c terminus: a fixed tail appended
Rule: protein stability index of 3 or more gives 1 (yes); anything lower gives 0 (no).

Input: Threshold query (protein stability index >= 3) on MTVEKEAPDAHFTHDKQNISLWPR
Output: 1 (yes)

Input: Threshold query (protein stability index >= 3) on MTVEKEAPDAVFTVDKQNISLWPR
Output: 1 (yes)

Data provenance is the supplement of paper PMC10567573.
